System: KM12 colon
Test: NCI tumour cell line growth inhibition, 48 h
TGI for assorted compounds

[
  {
    "compound": "CCOC(=O)c1cc2c3c(cc(OC)c2[nH]1)N(C(=O)OCC)CC3",
    "TGI": "> 100 µM"
  },
  {
    "compound": "Cc1ncc(CSC(=N)N)n1Cc1ccccc1",
    "TGI": "> 100 µM"
  }
]

Q: Sample O=C1CCS/C(=N/S(=O)(=O)c2ccc(N3N=C4c5ccccc5CC4C3c3cccs3)cc2)N1Cc1ccccc1 (stereo unspecified) — what was its TGI?
Ans: 41 µM

Q: Sample `COc1cccc(N=NN2CCCC2)c1` — what was its TGI?
Ans: > 100 µM

###

Tested on: UACC-62 melanoma
Test: NCI tumour cell line growth inhibition, 48 h
measuredQuantity: TGI

[
  {
    "compound": "C/C(=N\\NC(=S)N1CCOCC1)c1nc2ncccc2[nH]1",
    "TGI": "> 100 µM"
  },
  {
    "compound": "Cc1cc2occ(S(=O)(=O)NC(=O)Nc3ccc(Cl)cc3)c(=O)c2c(=O)o1",
    "TGI": "> 100 µM"
  },
  {
    "compound": "CCCCCCCCCCCCC1N=C(N)NC2(CCCO2)C1C(=O)OC (stereo not given)",
    "TGI": "14.8 µM"
  },
  {
    "compound": "COC(=O)[C@]1(C)CCC[C@]2(C)[C@@H]1CCC13C[C@@H](C=CO1)[C@@H](C)CC32O (stereo not given in full)",
    "TGI": "> 100 µM"
  },
  {
    "compound": "O=C1CNN=C(Cn2nc(-c3ccccc3)c3ccccc3c2=O)N1",
    "TGI": "> 100 µM"
  },
  {
    "compound": "CC1(C)CC[C@]2(C(=O)O)CC[C@]3(C)C(=CC[C@@H]4[C@@]5(C)C/C(=C/c6ccco6)C(=O)C(C)(C)[C@@H]5CC[C@]43C)[C@@H]2C1",
    "TGI": "12.8 µM"
  },
  {
    "compound": "O=c1c2cc(I)ccc2nc(-c2cccs2)n1O",
    "TGI": "> 100 µM"
  },
  {
    "compound": "CC1=CCN(c2ccccn2)OC1c1ccccc1 (stereo not given)",
    "TGI": "> 100 µM"
  },
  {
    "compound": "O=C(c1ccccc1)c1cc(Cl)ccc1NCn1nnc2ccccc21",
    "TGI": "> 100 µM"
  }
]

Okay, now this compound:
Q: Which TGI is reported with UACC-62 melanoma for this entry: `CCN(CC)CCNc1ccc([N+](=O)[O-])c2sc3cc(Cl)ccc3c(=O)c12` ?
Ans: > 100 µM

###

Tested on: NCI-H460 lung
Assay: NCI tumour cell line growth inhibition, 48 h
measuredQuantity: TGI (µM)
Entry rule: numbers only, all in µM.

Reference set, count: 2
[
  {
    "smilesData": "O=C(/C(=C/c1ccc(O)cc1)c1ccccc1)c1ccccc1",
    "TGI, µM": 38.4
  },
  {
    "smilesData": "COc1cc([C@@H]2Oc3cc4oc(-c5ccccc5)cc(=O)c4c(O)c3O[C@H]2OC)ccc1O",
    "TGI, µM": 15.2
  }
]

Q: Which TGI is reported with NCI-H460 lung for this entry: `COc1ccc(N=Nc2c(N)nn3c(SC)c(C#N)c(N)nc23)cc1` ?
Ans: 34.7

###

System: NCI/ADR-RES ovarian
Assay: NCI tumour cell line growth inhibition, 48 h
TGI for assorted compounds

Q: Sample `COc1cc(N(CCC#N)CCC#N)ccc1/C(N=Nc1ccc(C(=O)O)cc1)=N/NC(=O)c1cc(Br)ccc1O` — what was its TGI?
Ans: > 150 µg/mL

Q: Sample `Cc1nc(Cc2n[nH]c(C)n2)n[nH]1` — what was its TGI?
Ans: > 100 µM

Q: Sample `Cn1ccnc1C(=O)/C=C/c1ccc(C(=O)Nc2c(F)c(F)c(F)c(F)c2F)cc1` — what was its TGI?
Ans: 12.9 µM

Q: Sample `Clc1ccc2c(NCCCN3CCN(c4nc(N5CCOCC5)nc5ccccc45)CC3)ccnc2c1` — what was its TGI?
Ans: 4.73 µM

Q: Sample Cc1nc2c(Br)cc(Br)cc2c(=O)n1-c1ccccc1NC1OCC(O)C(O)C1O (stereo not drawn) — what was its TGI?
Ans: > 100 µM

Q: Sample `C#CCOC(=O)C(=[N+]=[N-])C(=O)CC(C)C` — what was its TGI?
Ans: > 10 µM

Q: Sample CCCCCCCCCCCCC1N=C(N)NC2(CCCO2)C1C(=O)OC (stereo not drawn) — what was its TGI?
Ans: 42.9 µM

Q: Sample `COc1ccc(/C=C/C(C)=N/OCC(=O)Nc2ccc(Cl)cc2)cc1` — what was its TGI?
Ans: 15.3 µM

Q: Sample `Clc1ccc(C2=NCON=C2c2ccc(Cl)cc2)cc1` — what was its TGI?
Ans: 71.2 µM

Q: Sample CCOC(=O)c1csc(NC(=O)C(C)N2CCOCC2)n1 (stereo not drawn) — what was its TGI?
Ans: > 100 µM

Q: Sample `CCN(CC)CCOc1ccc2c(C)c(C(=O)OC)oc2c1C(=O)/C=C/c1ccc(OC)cc1` — what was its TGI?
Ans: 6.53 µM

Q: Sample CC(NNC(=O)c1ccncc1)c1ccc(Cl)cc1Cl (stereo not drawn) — what was its TGI?
Ans: > 100 µM

###

System: HCT-116 colon
Assay: NCI tumour cell line growth inhibition, 48 h
measuredQuantity: TGI

[
  {
    "molecule": "CC(CC=O)Nc1nn2c(=O)c3ccccc3nc2s1 (configuration not stated)",
    "targetDesc": "HCT-116 colon",
    "TGI": "> 100 µM"
  },
  {
    "molecule": "CSc1nc[nH]c1C(N)=S",
    "targetDesc": "HCT-116 colon",
    "TGI": "> 100 µM"
  },
  {
    "molecule": "CCCCCCCCCCCCOC1C(C(CC(=O)N2CCN(Cc3ccc4c(c3)OCO4)CC2)NS(=O)(=O)c2cc(Cl)cc(Cl)c2)OC2OC(C)(C)OC21 (configuration not stated)",
    "targetDesc": "HCT-116 colon",
    "TGI": "36.7 µM"
  },
  {
    "molecule": "Cc1ccc(NCCN(C)C)c2c(=O)c3cc(O)ccc3sc12",
    "targetDesc": "HCT-116 colon",
    "TGI": "8.79 µM"
  },
  {
    "molecule": "Cc1ccccc1Nc1nc2ccccc2nc1NS(=O)(=O)c1ccccc1",
    "targetDesc": "HCT-116 colon",
    "TGI": "> 100 µM"
  },
  {
    "molecule": "COCC1N=C(c2cc(OC)c(OC)c(OC)c2-c2cc3c(cc2[C@H](C)O)OCO3)O[C@H]1c1ccccc1 (some centres not stated)",
    "targetDesc": "HCT-116 colon",
    "TGI": "> 100 µM"
  },
  {
    "molecule": "Cc1ccc(NC(=O)C(=O)Cc2cccc[n+]2[O-])cc1C",
    "targetDesc": "HCT-116 colon",
    "TGI": "> 100 µM"
  },
  {
    "molecule": "S=c1[nH]nc(CCCCCCCCc2n[nH]c(=S)o2)o1",
    "targetDesc": "HCT-116 colon",
    "TGI": "> 100 µM"
  },
  {
    "molecule": "C=CCNC1=C2C[C@@H](C)C[C@@H](OC)[C@H](OC(=O)CCN(C)C)[C@H](C)/C=C(\\C)[C@@H](OC(N)=O)[C@H](OC)/C=C\\C=C(/C)C(=O)NC(=CC1=O)C2=O",
    "targetDesc": "HCT-116 colon",
    "TGI": "16.5 µM"
  },
  {
    "molecule": "CN(/N=C\\c1ccc2ccccc2c1)C1=NCCCN1",
    "targetDesc": "HCT-116 colon",
    "TGI": "28.9 µM"
  }
]

Q: Sample `COc1ccc2c(c1)[n+](=O)c(C(C)=O)c(C)n2[O-]` — what was its TGI?
Ans: > 100 µM

Q: Sample `COc1ccc(/C=C/C(C)=N/OCC(=O)Nc2ccc(Cl)cc2)cc1` — what was its TGI?
Ans: 9.39 µM

Q: Sample COC(=O)C1CCC(=O)N1/C(C)=N/NC(=O)Nc1ccc(Cl)c(Cl)c1 (configuration not stated) — what was its TGI?
Ans: > 100 µM

Q: Sample `Cn1c(NC(=O)NC23CC4CC(CC(C4)C2)C3)nc2ccccc21` — what was its TGI?
Ans: > 100 µM

Q: Sample `O=S(=O)(O)c1cc(O)c(N=Nc2ccc3ccccc3c2O)c2ccccc12` — what was its TGI?
Ans: > 100 µM

Q: Sample `Oc1ccc(SCc2cc(O)ccc2O)cc1` — what was its TGI?
Ans: 26.1 µM

Q: Sample `O=c1nc2[nH]c3c(-c4n[nH]c(=O)[nH]c4=O)cccc3c2n[nH]1` — what was its TGI?
Ans: > 100 µM
